The compounds listed here are annotated with their MCH-2 k3/Ki.
# testTarget: MCH-2 (Homo sapiens, UniProt P55212)
# Sequence (P55212 24-179 limits assumed): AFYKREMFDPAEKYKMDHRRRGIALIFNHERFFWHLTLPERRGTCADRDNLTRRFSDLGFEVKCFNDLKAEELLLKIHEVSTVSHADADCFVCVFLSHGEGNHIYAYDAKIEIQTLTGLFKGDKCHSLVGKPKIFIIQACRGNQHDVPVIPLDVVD
# Sequence (P55212 194-293 limits assumed): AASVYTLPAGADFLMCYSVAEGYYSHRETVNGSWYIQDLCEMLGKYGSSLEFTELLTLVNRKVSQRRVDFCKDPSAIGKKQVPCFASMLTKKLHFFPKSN
# experimentDescription: Dissociation constant Ki and irreversible rate constant k3 for irreversible inhibitors, Mch2
# Type: biochemical
# assaySetup: continuous assay 60 min, reaction initiated by adding enzyme

Illustrative cases are given below, each with its answer.
1) CC(C)C[C@H](NC(=O)COc1ccccc1-c1ccccc1)C(=O)N[C@@H](CC(=O)O)C(=O)COP(=O)(c1ccccc1)c1ccccc1 : 149,000 M^−1s^−1
2) CC(C)[C@H](NC(=O)COc1ccc2ccccc2c1)C(=O)NC(CC(=O)O)C(=O)CF (mixture of isomers) : 64,400 M^−1s^−1
3) CC(C)[C@H](NC(=O)COc1cccc2ccccc12)C(=O)N[C@@H](CC(=O)O)C(=O)COc1ccc(F)cc1F : 0 M⁻¹ s⁻¹

response.value for CC(C)[C@H](NC(=O)CCOc1cccc2ccccc12)C(=O)NC(CC(=O)O)C(=O)CF (mixture of isomers) (field: MCH-2 k3/Ki) = 59,400 M^−1s^−1

response.value for CC(C)[C@H](NC(=O)COc1cccc2ccccc12)C(=O)N[C@@H](CC(=O)O)C(=O)COP(C)(=O)c1ccccc1 (stereo partly drawn) (field: MCH-2 k3/Ki) = 50,200 M^−1s^−1

response.value for CC(C)[C@H](NC(=O)COc1cccc2ccccc12)C(=O)N[C@@H](CC(=O)O)C(=O)COP(C)(=O)c1cccc2ccccc12 (stereo partly drawn) (field: MCH-2 k3/Ki) = 150,000 M^−1s^−1

###

# testTarget: CPP32 (Homo sapiens)
# experimentDescription: Dissociation constant Ki and irreversible rate constant k3 for irreversible inhibitors, CPP32
# Format: biochemical
# assaySetup: continuous assay 60 min, reaction initiated by adding enzyme
readoutKind: CPP32 k3/Ki

Illustrative cases are given below, each with its answer.
1) CC(C)[C@H](NC(=O)COc1ccccc1-c1ccccc1)C(=O)N[C@@H](CC(=O)O)C(=O)COC(=O)c1c(Cl)cccc1Cl [Example 150] : 698,000 M^−1s^−1
2) CC(C)[C@H](NC(=O)COc1cccc2ccccc12)C(=O)N[C@@H](CC(=O)O)C(=O)COP(=O)(c1ccccc1)c1ccccc1 [Example 103] : 351,000 M^−1s^−1

Would you kindly look at the next entry?
Summary: Cc1nnc(SCC(=O)[C@H](CC(=O)O)NC(=O)[C@@H](NC(=O)COc2cccc3ccccc23)C(C)C)s1 [Example 128] , CPP32 (Homo sapiens), CPP32 k3/Ki = 5,240 M^−1s^−1

###

# testTarget: CPP32 (Homo sapiens, UniProt P42574)
# Sequence (P42574 29-175 limits assumed, species assumed): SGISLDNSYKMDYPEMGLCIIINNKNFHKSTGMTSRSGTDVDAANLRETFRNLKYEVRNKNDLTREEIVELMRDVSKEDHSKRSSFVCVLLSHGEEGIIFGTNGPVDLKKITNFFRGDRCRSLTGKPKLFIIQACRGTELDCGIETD
# Sequence (P42574 176-277 limits assumed, species assumed): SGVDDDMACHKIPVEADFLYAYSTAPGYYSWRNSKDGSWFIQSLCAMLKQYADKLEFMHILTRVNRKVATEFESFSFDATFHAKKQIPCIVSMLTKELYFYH
# experimentDescription: Dissociation constant Ki and irreversible rate constant k3 for irreversible inhibitors, CPP32
# assaySetup: continuous assay 60 min, reaction initiated by adding enzyme
readoutKind: pKi
// scale note: pKi = -log10(conc_M); give the bare number

Illustrative cases are given below, each with its answer.
1) CC(C)C(NC(=O)COc1ccccc1-c1ccccc1)C(=O)NC(CC(=O)O)C(=O)CF (stereo not shown) : 6.86
2) CC(C)[C@H](NC(=O)COc1cccc2ccccc12)C(=O)N[C@@H](CC(=O)O)C(=O)COc1ccnc(C(F)(F)F)n1 : 7.33
3) CC(C)[C@H](NC(=O)COc1cccc2ccccc12)C(=O)N[C@@H](CC(=O)O)C(=O)COc1ccccc1F : 6.99
4) CC(C)[C@H](NC(=O)COc1ccc2ccccc2c1)C(=O)NC(CC(=O)O)C(=O)CF (mixture of isomers) : 6.68
5) CC(C)[C@H](NC(=O)COc1cccc2ccccc12)C(=O)N[C@@H](CC(=O)O)C(=O)COP(=O)(c1ccccc1)c1ccccc1 : 7.42

response.value for CC(C)[C@H](NC(=O)COc1cccc2ccccc12)C(=O)N[C@@H](CC(=O)O)C(=O)COP(C)(=O)c1ccccc1 (stereo partly shown) (field: pKi) = 7.27

response.value for CC(C)[C@H](NC(=O)COc1cccc2ccccc12)C(=O)N[C@@H](CC(=O)O)C(=O)COP(=O)(Cc1ccccc1)c1ccccc1 (stereo partly shown) (field: pKi) = 7.85

response.value for CC(C)[C@H](NC(=O)COc1cccc2ccccc12)C(=O)N[C@@H](CC(=O)O)C(=O)COc1cc(F)cc(F)c1 (field: pKi) = 6.97

response.value for CC(C)[C@H](NC(=O)COc1cccc2ccccc12)C(=O)N[C@@H](CC(=O)O)C(=O)COc1c(-c2ccccc2)oc2ccccc2c1=O (field: pKi) = 7.34

response.value for CC(C)[C@H](NC(=O)COc1cccc2ccccc12)C(=O)N[C@@H](CC(=O)O)C(=O)COc1ccc(F)c(F)c1 (field: pKi) = 7.05

response.value for CC(C)[C@H](NC(=O)COc1cccc2ccccc12)C(=O)N[C@@H](CC(=O)O)C(=O)COc1cc(F)cc(F)c1F (field: pKi) = 7.21

response.value for CC(C)[C@H](NC(=O)COc1cccc2ccccc12)C(=O)N[C@@H](CC(=O)O)C(=O)COc1cc(C(F)(F)F)nn1-c1ccccc1 (field: pKi) = 7.30

response.value for O=C(O)CC(NC(=O)[C@@H]1CCCCN1C(=O)COc1cccc2ccccc12)C(=O)CF (stereo partly shown) (field: pKi) = 6.03

response.value for CC(C)[C@H](NC(=O)COc1cccc2ccccc12)C(=O)N[C@@H](CC(=O)O)C(=O)COc1cc(F)c(F)cc1F (field: pKi) = 6.91

response.value for CC(C)[C@H](NC(=O)CCOc1ccccc1)C(=O)N[C@@H](CC(=O)O)C(=O)COc1c(F)c(F)cc(F)c1F (field: pKi) = 6.88

response.value for CC(C)[C@H](NC(=O)COc1cccc2ccccc12)C(=O)NC(CC(=O)O)C(=O)CF (mixture of isomers) (field: pKi) = 7.10

###

# testTarget: MCH-3 (Homo sapiens, UniProt P55210)
# Sequence (P55210 24-198 limits assumed, species assumed): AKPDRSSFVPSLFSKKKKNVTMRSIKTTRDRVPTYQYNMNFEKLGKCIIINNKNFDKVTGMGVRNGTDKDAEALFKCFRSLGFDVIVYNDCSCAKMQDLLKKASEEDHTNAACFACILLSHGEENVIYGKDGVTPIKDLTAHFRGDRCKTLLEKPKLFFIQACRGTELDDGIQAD
# Sequence (P55210 207-303 limits assumed, species assumed): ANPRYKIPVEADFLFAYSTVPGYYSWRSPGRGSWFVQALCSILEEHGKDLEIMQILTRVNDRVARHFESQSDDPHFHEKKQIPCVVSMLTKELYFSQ
# experimentDescription: Fluorescence enzyme assay, IC50 determination, Mch3
# Format: biochemical
# assaySetup: Table 3; method of Preparation 3A; read-out: MCH3 I50
Where a SMILES comes first, the peptide text is derived from it. The star is where a group is joined. Hydrocinnamoyl = O=C(CCc1ccccc1)*
Consider the cut-off 8 µM. If the recorded IC50 is strictly smaller, the label is met; if not, the label is not met.

1) CC(C)C[C@H](NC(=O)COc1ccccc1OCc1ccccc1)C(=O)N[C@H](C=O)CC(=O)O : met
2) Cc1ccc2ccccc2c1OCC(=O)N[C@@H](CC(C)C)C(=O)N[C@H](C=O)CC(=O)O : met
3) CC(C)C[C@H](NC(=O)CCCc1ccc2ccccc2c1)C(=O)N[C@H](C=O)CC(=O)O : not met
4) CC(C)C[C@H](NC(=O)COc1ccc2ccccc2c1)C(=O)N[C@H](C=O)CC(=O)O : not met
5) CC(C)C[C@H](NC(=O)C(C)CC(=O)c1cccc2ccccc12)C(=O)N[C@H](C=O)CC(=O)O (stereo partly drawn) : not met
6) CC(C)C[C@H](NC(=O)CCc1ccccc1)C(=O)N[C@H](C=O)CC(=O)O [Example 35] (Hydrocinnamoyl-Leu-Asp-aldehyde) : not met
7) CC(C)C[C@H](NC(=O)COc1ccccc1-c1ccccc1)C(=O)N[C@H](C=O)CC(=O)O : met
8) CC(C)C[C@H](NC(=O)CCc1cccc2ccccc12)C(=O)N[C@H](C=O)CC(=O)O : not met

Here is the next item to consider.
Ask: Hi there! Is IC50 for CC(C)C[C@H](NC(=O)C(C)Oc1ccccc1)C(=O)N[C@H](C=O)CC(=O)O (stereo partly drawn) below 8 µM, do you know?
Reply: not met

###

# testTarget: mICE (Mus musculus)
# Sequence (P29452 123-296 limits assumed): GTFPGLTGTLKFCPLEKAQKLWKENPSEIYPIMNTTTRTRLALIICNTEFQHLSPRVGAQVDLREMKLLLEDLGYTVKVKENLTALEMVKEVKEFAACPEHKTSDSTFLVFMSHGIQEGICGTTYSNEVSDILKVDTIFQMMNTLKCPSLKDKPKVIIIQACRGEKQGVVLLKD
# Sequence (P29452 315-402 limits assumed): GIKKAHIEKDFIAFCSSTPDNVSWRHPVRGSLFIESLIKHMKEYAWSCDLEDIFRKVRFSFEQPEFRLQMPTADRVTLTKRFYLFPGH
# experimentDescription: Dissociation constant Ki and irreversible rate constant k3 for irreversible inhibitors, ICE
# Assay type: biochemical
# assaySetup: continuous assay 60 min, reaction initiated by adding enzyme
readoutKind: mICE k3/Ki

Illustrative cases are given below, each with its answer.
1. CC(C)[C@H](NC(=O)COc1ccc2ccccc2c1)C(=O)NC(CC(=O)O)C(=O)CF (mixture of isomers) [Example 54] : 8,280 M^−1s^−1
2. CC(C)[C@H](NC(=O)COc1cccc2ccccc12)C(=O)N[C@@H](CC(=O)O)C(=O)COc1c(-c2ccccc2)oc2ccccc2c1=O [Example 115] : 8,740 M^−1s^−1

Would you kindly look at the next entry?
response.value for CC(C)[C@H](NC(=O)COc1ccc2ccccc2c1)C(=O)N[C@@H](CC(=O)O)C(=O)COc1c(F)cc(F)cc1F [Example 156] (field: mICE k3/Ki) = 20,200 M^−1s^−1
